Target: Nuclear receptor subfamily 1 group D member 1 (Homo sapiens)
Assay: modulators of Rev-erb alpha DNA binding, dose response, biochemical, FITC-DNA, fluorescence polarization (AID 1259321)
Calls of active or inactive are those of the source.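 How the source made its calls: active means half-maximal concentration for changing protein binding to DNA, from the fitted dose curve, below 10 micromolar; inactive means the rest.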
Pick one and only one: Yes = active, No = inactive

>  <Smiles Input>
CN(CCC#N)c1ccc(/C=C(\C#N)c2ccccn2)cc1

>  <Class Name>
Yes

$$$$
>  <Smiles Input>
CCOc1ccc(-n2c([S-])c(C(=O)Nc3ccc(S(=O)(=O)N4CCOCC4)cc3)[n+]3cc(C(N)=O)ccc23)cc1

>  <Class Name>
No

$$$$

What was the test verdict on `CCOC(=O)c1sc(NC(=S)NC(=O)c2ccc(OC)cc2)nc1C` ? Yes

What was the test verdict on `Cc1cc(C)c(NC(=O)CSc2nc3ncc(Br)cc3[nH]2)c(C)c1` ? No

What was the test verdict on `COc1ccc(/C=C/C(=O)NC(=S)N2CCN(c3ccccc3OC)CC2)cc1` ? Yes

What was the test verdict on `Nc1ccc2cc3ccc(N)cc3nc2c1` ? No

What was the test verdict on `COC(=O)Cn1cc(/C=C/c2cc[n+](C)cc2)c2ccccc21` ? No

What was the test verdict on `COc1ccc(-c2ccc3sc4ccccc4c(=O)c3c2)cn1` ? Yes

What was the test verdict on `COc1ccccc1-c1nc(SCC(=O)Nc2cc(C)on2)c2c(=O)n(C)c(=O)n(C)c2n1` ? Yes

What was the test verdict on `O=C(Nc1ccnc(-c2cccnc2)n1)c1ccc(Cl)cc1` ? Yes

What was the test verdict on `Cc1cc(C)cc(NC(=S)/C(=C(\[O-])c2ccc(Cl)cc2Cl)[n+]2ccc(C(C)(C)C)cc2)c1` ? No

What was the test verdict on `Cc1ccc(OCC(=O)Nc2ccc(O)c(-c3nc4ccccc4o3)c2)cc1` ? No

What was the test verdict on `COc1cc(C(=O)Nc2nc(-c3cc(C)ccc3C)c(C)s2)ccc1OCC(=O)Nc1ccc(F)cc1` ? No

// provenance: PubChem BioAssay AID1259321
